Listing: protein stability index of selected variants
B1: CHCHD3 (parent)
chain: YSGAYGASVSDEELKRRVAEELAL

Variants of: B1
measurementProtocol: protein stability index of a GFP-peptide fusion (GPS, HEK-293T) (PSI 1-6); higher = more stable;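 also: lentivirally expressed fusions sorted by FACS into six bins by GFP to DsRed ratio, PSI derived from sequencing read proportions per bin multiplied by bin number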
experimentalSetup: c terminus: a fixed tail appended
Lab note: record just the number, no unit beside it.

Here are 3 variants together with their reported answers.
Y5A	5.09
L24H	2.31
R16C	1.92

Query: Endpoint output: protein stability index of S8N . Value?
Reply: 3.22

Query: Endpoint output: protein stability index of Y5P . Value?
Reply: 4.88
